The reported numbers originate from paper PMC7826789.

tested on: CLK1; settings: Compound Concentration (nM):1000;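 further: KINOMEscan scanMAX binding as percent activity remaining versus control; lower means stronger binding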
Some compounds, each annotated with its measured Percent Control.

// worked examples, Percent Control included
COc1cccc(-c2c[nH]c3c(N/N=C/c4ccncc4)ncnc23)c1 [GW814408X] :: 30%
COc1cc(C=NNc2ncnc3c2cnn3-c2ccccc2)ccc1O [GW513184X] :: 48%

Kindly consider the entry below.
Problem: Record lookup: for CLK1, what Percent Control belongs to NS(=O)(=O)c1ccc(N/N=C2\C(=O)Nc3ccc(C(=O)NCc4ccncc4)cc32)cc1 [GW300657X] ?
Solution: 67%

---

tested on: ROCK2; settings: Compound Concentration (nM):1000
Some molecules, each annotated with its measured Percent Control.

COc1cccc(-n2ncc3c(N/N=C/c4ccncc4)ncnc32)c1 [GW784752X] :: 84%
Cl.O=C(Nc1ccc(Oc2ccc3[nH]c(NC(=O)c4ccco4)nc3c2)cc1)Nc1cc(C(F)(F)F)ccc1F [GW683134A] :: 57%
C/C(Nc1ccc(S(N)(=O)=O)cc1)=C1/C(=O)Nc2ccccc21 [GW335962X] :: 69%
O=C1Nc2ccc(C(=O)c3ccco3)cc2C1=Cc1cc(Cl)c(O)c(Cl)c1 [GW406108X] :: 45%
CCn1c(-c2nonc2N)nc2c(C#CC(C)(C)O)nc(OCCNC)cc21.Cl :: 78%

Problem: // lookup Percent Control for CN(C)c1cc2c(Nc3ccc4c(cnn4Cc4ccccc4)c3)ncnc2cn1 [GW282974X]
Solution: 96%

Problem: Again, but for COc1cc(N2CCN(C(C)C)CC2)ccc1Nc1nc(Nc2ccc(F)cc2C(=O)NC[C@@H](O)CO)c2cc[nH]c2n1 [GSK1392956A]
Solution: 100%

Problem: Again, but for COc1ccc2c(-c3ccnc(Nc4cccc(OC(F)(F)F)c4)n3)cnn2n1 [GW810372X]
Solution: 100%

---

test system: BMPR1A; settings: Compound Concentration (nM):1000
reported_endpoint: Percent Control (%)
Supply the numeric figure in %, leaving out any unit text.

COc1cccc(-c2c[nH]c3c(N/N=C/c4ccncc4)ncnc23)c1 [GW814408X] :: 31
COc1ccc(COc2ccc(Cc3cnc(N)nc3N)cc2OC)cc1 [GW632580X] :: 100

Problem: // lookup Percent Control for Cl.c1ccc(Cc2nc3ccc(Nc4ncnc5ccccc45)cc3[nH]2)cc1 [GR269666A]
Solution: 100

Problem: Again, but for CC(C)COC(=O)c1ccc2c(c1)/C(=C/Nc1ccc(S(N)(=O)=O)cc1)C(=O)N2 [GW416981X]
Solution: 100

Problem: Again, but for CC1=C(C(=O)Nc2ccc3[nH]ncc3c2)C(c2ccc(Cl)c(Cl)c2)CC(=O)N1 (centres unmarked) [GSK299115A]
Solution: 100

Problem: Again, but for CCS(=O)(=O)c1ccc(OC)c(Nc2ncc(-c3cccc(OC)c3)o2)c1 [GW580509X]
Solution: 100

Problem: Again, but for Cl.O=C(Nc1ccc(Oc2ccc3[nH]c(NC(=O)c4ccco4)nc3c2)cc1)Nc1cc(C(F)(F)F)ccc1F [GW683134A]
Solution: 73

---

system: DDR2; conditions: Compound Concentration (nM):1000
Some compounds, each annotated with its measured Percent Control.

NS(=O)(=O)c1ccc(N/N=C2\C(=O)Nc3ccc(Cl)cc32)cc1 [GW280670X] :: 100%
Cl.O=C(Nc1ccc(Oc2ccc3[nH]c(NC(=O)c4ccccc4)nc3c2)cc1)Nc1cc(C(F)(F)F)ccc1F [GW709042A] :: 16%
NS(=O)(=O)c1ccc(N/N=C2\C(=O)Nc3ccc(C(=O)NCc4ccncc4)cc32)cc1 [GW300657X] :: 89%
Cl.O=C(O[C@H]1CN[C@H](C#Cc2cc3ncnc(Nc4ccc5c(cnn5Cc5ccccc5)c4)c3s2)C1)N1CCOCC1 [GSK200398A] :: 100%
Cl.O=C(Nc1ccc(Oc2ccc3[nH]c(NC(=O)c4ccco4)nc3c2)cc1)Nc1cc(C(F)(F)F)ccc1F [GW683134A] :: 5.1%

Problem: // lookup Percent Control for COC(=O)Nc1nc2ccc(Oc3ccc(NC(=O)Nc4cc(C(F)(F)F)ccc4F)cc3)cc2s1.Cl [GW693917A]
Solution: 5.8%

Problem: Again, but for COc1cc(C)c(N(C)C(=O)CN(C)C)cc1Nc1nc(Nc2cccc(F)c2C(N)=O)c2cc[nH]c2n1 [GSK2219385]
Solution: 100%

Problem: Again, but for CN(C)CCNC(=O)Nc1ccc(N(C)c2ccnc(Nc3ccc(CS(C)(=O)=O)cc3)n2)cc1.Cl [GW830900A]
Solution: 17%

Problem: Again, but for CCn1c(-c2nonc2N)nc2c(C#CC(C)(C)O)nc(OCCNC)cc21.Cl [GSK949675]
Solution: 100%

Problem: Again, but for Cl.c1ccc(Cc2nc3ccc(Nc4ncnc5ccccc45)cc3[nH]2)cc1 [GR269666A]
Solution: 100%

Problem: Again, but for CCS(=O)(=O)c1ccc(OC)c(Nc2ncc(-c3cccc(F)c3)o2)c1 [GW621970X]
Solution: 100%

Problem: Again, but for CCc1ccc(Oc2nccc(-c3c(-c4ccc(F)cc4)ncn3C3CCNCC3)n2)cc1 [SB-242719]
Solution: 94%

Problem: Again, but for COc1ccc(COc2ccc(Cc3cnc(N)nc3N)cc2OC)cc1 [GW632580X]
Solution: 100%

Problem: Again, but for COc1ccc2cc(-c3c(-c4ccncc4)nc(-c4ccc(S(C)(=O)=O)cc4C)n3C)ccc2c1 [SB-633825]
Solution: 58%

Problem: Again, but for CC1=C(C(=O)Nc2ccc3[nH]ncc3c2)C(c2ccc3ccccc3c2)CC(=O)N1 (centres unmarked) [GSK270822A]
Solution: 90%

Problem: Again, but for C/C(Nc1ccc(S(N)(=O)=O)cc1)=C1/C(=O)Nc2ccccc21 [GW335962X]
Solution: 100%

Problem: Again, but for COc1ccc2[nH]c3c4[nH]c5ccc(OC)cc5c4c4c(c3c2c1)C(=O)NC4=O [GW296115X]
Solution: 72%

---

tested on: FES; settings: Compound Concentration (nM):1000
# binarize Percent Control: threshold 90% inclusive, high side true, low side false

Below, 6 compounds whose answers are already recorded.
COc1ccc2[nH]c3c4[nH]c5ccc(OC)cc5c4c4c(c3c2c1)C(=O)NC4=O [GW296115X] :: false
COc1cc2ncn(-c3cc(O[C@H](C)c4ccccc4Cl)c(C(N)=O)s3)c2cc1OC [GSK237701A] :: true
CN1CCN(C(=O)c2ccc(NC(=O)Nc3ccc(N(C)c4ccnc(Nc5ccc(CS(C)(=O)=O)cc5)n4)cc3)cc2)CC1.Cl [GW830263A] :: false
NS(=O)(=O)c1ccc(Nc2ncc(-c3ccccc3)o2)cc1 [GW572399X] :: true
CC1=C(C(=O)Nc2ccc3[nH]ncc3c2)C(c2ccc(Cl)c(Cl)c2)CC(=O)N1 (stereo not shown) [GSK299115A] :: true
O=C1Nc2ccc(C(=O)c3ccco3)cc2C1=Cc1cc(Cl)c(O)c(Cl)c1 [GW406108X] :: true

# ---- query compound ----
Problem: Does CN(C)c1cc2c(Nc3ccc4c(cnn4Cc4ccccc4)c3)ncnc2cn1 [GW282974X] have a reported Percent Control of at least 90%?
Solution: false

---

system: MYO3B; conditions: Compound Concentration (nM):1000
reported_endpoint: Percent Control (%)
Supply the numeric figure in %, leaving out any unit text.

C[C@@H](Oc1cc(-n2cnc3ccc(OC4CCN(C)CC4)cc32)sc1C(N)=O)c1ccccc1Cl [GSK579289A] :: 87
O=C(Nc1n[nH]c2nc(-c3ccc(O)cc3)c(Br)cc12)C1CC1 :: 100
CN(C)CCNC(=O)Nc1ccc(N(C)c2ccnc(Nc3ccc(CS(C)(=O)=O)cc3)n2)cc1.Cl [GW830900A] :: 92
COc1ccc2[nH]c3c4[nH]c5ccc(OC)cc5c4c4c(c3c2c1)C(=O)NC4=O [GW296115X] :: 100
COc1cc(N2CCN(C(C)C)CC2)ccc1Nc1nc(Nc2ccc(F)cc2C(=O)NC[C@@H](O)CO)c2cc[nH]c2n1 [GSK1392956A] :: 100
Cl.O=S1CCN(Cc2ccc(-c3ccc4ncnc(Nc5ccc(OCc6ccccc6)c(F)c5)c4c3)o2)CC1 [GW576924A] :: 100

Problem: // lookup Percent Control for Cc1cc(O)cc(C)c1/C=C/c1cncc(C(N)=O)c1 [GW435821X]
Solution: 100

Problem: Again, but for Cl.O=C(Nc1ccc(Oc2ccc3[nH]c(NC(=O)c4ccccc4)nc3c2)cc1)Nc1cc(C(F)(F)F)ccc1F [GW709042A]
Solution: 100

---

tested on: CAMK2A; settings: Compound Concentration (nM):1000
Some compounds, each annotated with its measured Percent Control.
Supply the numeric figure in %, leaving out any unit text.

CC(C)COC(=O)c1ccc2c(c1)/C(=C/Nc1ccc(S(N)(=O)=O)cc1)C(=O)N2 [GW416981X] :: 29
C[C@@H](Oc1cc(-n2cnc3ccc(OC4CCN(C)CC4)cc32)sc1C(N)=O)c1ccccc1Cl [GSK579289A] :: 74
O=C1Nc2ccc(C(=O)c3ccco3)cc2C1=Cc1cc(Cl)c(O)c(Cl)c1 [GW406108X] :: 25
CCS(=O)(=O)c1ccc(OC)c(Nc2ncc(-c3cccc(OC)c3)o2)c1 [GW580509X] :: 71

Problem: // lookup Percent Control for COc1cc(N2CCN(C(C)C)CC2)ccc1Nc1nc(Nc2ccc(F)cc2C(=O)NC[C@@H](O)CO)c2cc[nH]c2n1 [GSK1392956A]
Solution: 69

Problem: Again, but for COc1cc2ncnc(Nc3ccc4c(cnn4Cc4ccccc4)c3)c2cc1OC.Cl [GW282449A]
Solution: 100

Problem: Again, but for CN(C)CCNC(=O)Nc1ccc(N(C)c2ccnc(Nc3ccc(CS(C)(=O)=O)cc3)n2)cc1.Cl [GW830900A]
Solution: 92

Problem: Again, but for NS(=O)(=O)c1ccc(N/N=C2\C(=O)Nc3ccc(Cl)cc32)cc1 [GW280670X]
Solution: 100
